The measurements presented in this section are drawn from paper PMC5909127.

Recorded IC50 by entry
subject-of-test: BRD2 BD1 L/V (Homo sapiens, UniProt P25440, L110V)
Sequence (P25440 71-176 L110V limits assumed): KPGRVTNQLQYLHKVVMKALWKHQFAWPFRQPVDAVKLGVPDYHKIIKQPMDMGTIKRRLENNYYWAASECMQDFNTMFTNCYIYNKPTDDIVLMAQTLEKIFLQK
assay-comment: competitive AlphaLISA
Assay type: binding
Numeric answer only, unit nM assumed.

Per the records, this molecule ( C=CC[C@@H](C(=O)OC(C)(C)C)[C@@H]1N=C(c2ccc(Cl)cc2)c2ccc(OC)cc2-n2c(C)nnc21 ) has IC50 equal to 2510

Per the records, this molecule ( CCNC(=O)[C@H](CC)[C@@H]1N=C(c2ccc(Cl)cc2)c2ccc(OC)cc2-n2c(C)nnc21 (relative stereo) ) has IC50 equal to 6310

Per the records, this molecule ( CCN(CC)C(=O)[C@H](C)[C@@H]1N=C(c2ccc(Cl)cc2)c2cc(OC)ccc2-n2c(C)nnc21 (relative stereo) ) has IC50 equal to 1000

---

Recorded IC50 by entry
subject-of-test: BRD3 BD2 WT (Homo sapiens)
Sequence (Q15059 306-416): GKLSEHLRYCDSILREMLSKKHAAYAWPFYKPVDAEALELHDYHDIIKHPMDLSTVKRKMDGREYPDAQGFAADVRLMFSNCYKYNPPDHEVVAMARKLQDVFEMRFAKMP
assay-comment: competitive AlphaLISA
Assay type: binding
Please report the result as a number followed by the unit.

Here are 2 compounds together with their reported answers.
1. C=CC[C@@H](C(=O)OC(C)(C)C)[C@@H]1N=C(c2ccc(Cl)cc2)c2ccc(OC)cc2-n2c(C)nnc21; 5.01 µM
2. CC[C@@H](C(=O)OC)[C@@H]1N=C(c2ccc(Cl)cc2)c2cc(OC)ccc2-n2c(C)nnc21 (relative stereo); 10 µM

Continue with the next compound.
Per the records, this compound ( C=CC[C@@H](C(=O)OC)[C@@H]1N=C(c2ccc(Cl)cc2)c2cc(OC)ccc2-n2c(C)nnc21 (racemic) ) has IC50 equal to 10 µM

---

assay-comment: in vitro
recorded-conditions: PAMPA, pH 7.4
observation-type: Papp (×10⁻⁶ cm/s)
Numeric answer only, unit ×10⁻⁶ cm/s assumed.

Here are 6 molecules together with their reported answers.
1. CCNC(=O)[C@H](CC)[C@@H]1N=C(c2ccc(Cl)cc2)c2cc(OC)ccc2-n2c(C)nnc21 (relative stereo); 4.5
2. CCNC(=O)[C@H](C)[C@@H]1N=C(c2ccc(Cl)cc2)c2cc(OC)ccc2-n2c(C)nnc21 (relative stereo); 2.6
3. CC[C@@H](C(=O)OC)[C@@H]1N=C(c2ccc(Cl)cc2)c2ccc(OC)cc2-n2c(C)nnc21 (racemic); 15.5
4. CCNC(=O)[C@H](CC)[C@@H]1N=C(c2ccc(Cl)cc2)c2ccc(OC)cc2-n2c(C)nnc21 (relative stereo); 5.9
5. COC(=O)CC1N=C(c2ccc(Cl)cc2)c2cc(OC)ccc2-n2c(C)nnc21 (stereo not shown); 14.9
6. C=CC[C@@H](C(=O)NCC)[C@@H]1N=C(c2ccc(Cl)cc2)c2cc(OC)ccc2-n2c(C)nnc21 (relative stereo); 5.2

Per the records, this molecule ( C=CC[C@@H](C(=O)OC)[C@@H]1N=C(c2ccc(Cl)cc2)c2cc(OC)ccc2-n2c(C)nnc21 (racemic) ) has Papp equal to 12.7

---

subject-of-test: WT BET bromodomains (BD1 and BD2 of BRD2, BRD3 and BRD4)
assay-comment: competitive AlphaLISA (Bio-JQ1 displacement)
Assay type: binding, human
recorded-conditions: mean and SD of all somatic bromodomains; active enantiomer concentration
observation-type: AlphaLISA pIC50 ± SD WT

Here are 5 compounds together with their reported answers.
1) C=CC[C@@H](C(=O)OC)[C@@H]1N=C(c2ccc(Cl)cc2)c2cc(OC)ccc2-n2c(C)nnc21 (racemic); 5.1 ± 0.1
2) C=CC[C@@H](C(=O)OC(C)(C)C)[C@@H]1N=C(c2ccc(Cl)cc2)c2ccc(OC)cc2-n2c(C)nnc21; 5.2 ± 0.2
3) COC(=O)[C@H](C)[C@@H]1N=C(c2ccc(Cl)cc2)c2ccc(OC)cc2-n2c(C)nnc21 (racemic); 5.4 ± 0.2
4) CCNC(=O)[C@H](CC)[C@@H]1N=C(c2ccc(Cl)cc2)c2ccc(OC)cc2-n2c(C)nnc21 (relative stereo); <4.0
5) CCN(CC)C(=O)[C@H](C)[C@@H]1N=C(c2ccc(Cl)cc2)c2cc(OC)ccc2-n2c(C)nnc21 (relative stereo); 4.9 ± 0.2

Per the records, this compound ( CC[C@@H](C(=O)OC)[C@@H]1N=C(c2ccc(Cl)cc2)c2cc(OC)ccc2-n2c(C)nnc21 (relative stereo) ) has AlphaLISA pIC50 ± SD WT equal to 5.0 ± 0.1

Per the records, this compound ( CC[C@@H](C(=O)OC)[C@@H]1N=C(c2ccc(Cl)cc2)c2ccc(OC)cc2-n2c(C)nnc21 (racemic) ) has AlphaLISA pIC50 ± SD WT equal to 5.5 ± 0.2

Per the records, this compound ( C=CC[C@@H](C(=O)OC)[C@@H]1N=C(c2ccc(Cl)cc2)c2ccc(OC)cc2-n2c(C)nnc21 (relative stereo) ) has AlphaLISA pIC50 ± SD WT equal to 4.4 ± 0.1

Per the records, this compound ( COC(=O)[C@H](C)[C@@H]1N=C(c2ccc(Cl)cc2)c2cc(OC)ccc2-n2c(C)nnc21 (relative stereo) ) has AlphaLISA pIC50 ± SD WT equal to 6.2 ± 0.3

Per the records, this compound ( CCNC(=O)[C@H](C)[C@@H]1N=C(c2ccc(Cl)cc2)c2ccc(OC)cc2-n2c(C)nnc21 (relative stereo) ) has AlphaLISA pIC50 ± SD WT equal to 4.7 ± 0.3

Per the records, this compound ( CC[C@@H](C(=O)OC(C)(C)C)[C@@H]1N=C(c2ccc(Cl)cc2)c2ccc(OC)cc2-n2c(C)nnc21 ) has AlphaLISA pIC50 ± SD WT equal to 4.6 ± 0.1

Per the records, this compound ( C=CC[C@@H](C(=O)OC(C)(C)C)[C@@H]1N=C(c2ccc(Cl)cc2)c2cc(OC)ccc2-n2c(C)nnc21 ) has AlphaLISA pIC50 ± SD WT equal to 5.3 ± 0.1

Per the records, this compound ( CC[C@@H](C(=O)OC(C)(C)C)[C@@H]1N=C(c2ccc(Cl)cc2)c2cc(OC)ccc2-n2c(C)nnc21 ) has AlphaLISA pIC50 ± SD WT equal to 5.3 ± 0.1

Per the records, this compound ( CCC[C@@H](C(=O)OC)[C@@H]1N=C(c2ccc(Cl)cc2)c2cc(OC)ccc2-n2c(C)nnc21 (relative stereo) ) has AlphaLISA pIC50 ± SD WT equal to 4.5 ± 0.2

Per the records, this compound ( CCNC(=O)[C@H](CC)[C@@H]1N=C(c2ccc(Cl)cc2)c2cc(OC)ccc2-n2c(C)nnc21 (relative stereo) ) has AlphaLISA pIC50 ± SD WT equal to 4.4 ± 0.1

Per the records, this compound ( COC(=O)CC1N=C(c2ccc(Cl)cc2)c2ccc(OC)cc2-n2c(C)nnc21 (stereo not shown) ) has AlphaLISA pIC50 ± SD WT equal to 5.8 ± 0.2

Per the records, this compound ( CC[C@@H](C(=O)N(CC)CC)[C@@H]1N=C(c2ccc(Cl)cc2)c2cc(OC)ccc2-n2c(C)nnc21 (relative stereo) ) has AlphaLISA pIC50 ± SD WT equal to 4.6 ± 0.1

Per the records, this compound ( CCNC(=O)[C@H](C)[C@@H]1N=C(c2ccc(Cl)cc2)c2cc(OC)ccc2-n2c(C)nnc21 (relative stereo) ) has AlphaLISA pIC50 ± SD WT equal to 5.3 ± 0.2

Per the records, this compound ( C=CC[C@@H](C(=O)NCC)[C@@H]1N=C(c2ccc(Cl)cc2)c2cc(OC)ccc2-n2c(C)nnc21 (relative stereo) ) has AlphaLISA pIC50 ± SD WT equal to 4.3 ± 0.1

---

subject-of-test: BRD3 BD2 WT (Homo sapiens)
assay-comment: ITC
Assay type: binding
recorded-conditions: ITC
observation-type: ΔH BRD3 BD2 WT (kcal/mol)
Numeric answer only, unit kcal/mol assumed.

Here are 3 molecules together with their reported answers.
1. CCNC(=O)[C@H](C)[C@@H]1N=C(c2ccc(Cl)cc2)c2cc(OC)ccc2-n2c(C)nnc21 (relative stereo); -6.0
2. C=CC[C@@H](C(=O)OC)[C@@H]1N=C(c2ccc(Cl)cc2)c2cc(OC)ccc2-n2c(C)nnc21 (racemic); -3.7
3. CC[C@@H](C(=O)OC)[C@@H]1N=C(c2ccc(Cl)cc2)c2cc(OC)ccc2-n2c(C)nnc21 (relative stereo); -3.8

Per the records, this molecule ( CCNC(=O)[C@H](C)[C@@H]1N=C(c2ccc(Cl)cc2)c2ccc(OC)cc2-n2c(C)nnc21 (relative stereo) ) has ΔH BRD3 BD2 WT equal to -4.5

---

Recorded pIC50 by entry
subject-of-test: BRD3 BD2 WT (Homo sapiens)
assay-comment: competitive AlphaLISA
Assay type: binding
Hey, just a heads up that pIC50 is the negative log base 10 of the concentration in molar.

1) CC[C@@H](C(=O)OC(C)(C)C)[C@@H]1N=C(c2ccc(Cl)cc2)c2cc(OC)ccc2-n2c(C)nnc21; 5.30
2) COC(=O)[C@H](C)[C@@H]1N=C(c2ccc(Cl)cc2)c2ccc(OC)cc2-n2c(C)nnc21 (racemic); 5.30
3) CC[C@@H](C(=O)OC)[C@@H]1N=C(c2ccc(Cl)cc2)c2ccc(OC)cc2-n2c(C)nnc21 (racemic); 5.40
4) COC(=O)CC1N=C(c2ccc(Cl)cc2)c2ccc(OC)cc2-n2c(C)nnc21 (stereo not drawn); 5.60
5) CC[C@@H](C(=O)N(CC)CC)[C@@H]1N=C(c2ccc(Cl)cc2)c2cc(OC)ccc2-n2c(C)nnc21 (relative stereo); 4.60

Continue with the next molecule.
Per the records, this molecule ( C=CC[C@@H](C(=O)OC(C)(C)C)[C@@H]1N=C(c2ccc(Cl)cc2)c2cc(OC)ccc2-n2c(C)nnc21 ) has pIC50 equal to 5.20
